Data provenance is patent US12312332B2.

Target: human OX2R (Homo sapiens, UniProt O43614)
Construct: expressed in transfected cells; host or cells: Chinese hamster ovary (CHO) cells, kept under G418 selection
Sequence (O43614 whole entry): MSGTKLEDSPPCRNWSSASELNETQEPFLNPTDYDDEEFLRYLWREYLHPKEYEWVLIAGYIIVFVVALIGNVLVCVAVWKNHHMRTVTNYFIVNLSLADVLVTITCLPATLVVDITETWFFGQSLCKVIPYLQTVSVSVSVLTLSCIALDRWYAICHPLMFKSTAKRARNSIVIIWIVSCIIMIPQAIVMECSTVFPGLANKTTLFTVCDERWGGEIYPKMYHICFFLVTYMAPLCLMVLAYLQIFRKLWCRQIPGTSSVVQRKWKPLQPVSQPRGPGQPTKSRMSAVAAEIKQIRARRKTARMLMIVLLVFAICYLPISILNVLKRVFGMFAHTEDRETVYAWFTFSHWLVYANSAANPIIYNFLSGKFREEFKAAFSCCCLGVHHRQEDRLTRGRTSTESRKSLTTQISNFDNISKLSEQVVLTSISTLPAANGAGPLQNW
Assay: IPOne (IP-One) orexin receptor agonist assay in CHO cells expressing human OX2R
Type: cell-based
Details: human OX2R; percentage of sample raw value/mean max effect (reference compound at 1 uM with 100% activity)
readout.type: % max agonist effect (Emax) (%)

CS(=O)(=O)N[C@H]1CCN(c2nccc(O)c2F)[C@H]1CO[C@H]1CC[C@@H](c2c(F)ccc(F)c2F)CC1	100.3
Cc1cnc(N2CC[C@H](NS(C)(=O)=O)[C@@H]2CO[C@H]2CC[C@@H](c3ccccc3)CC2)cn1	100.9
CS(=O)(=O)N[C@H]1CCN(c2ncccc2C(F)(F)F)[C@H]1CO[C@H]1CC[C@@H](c2ccccc2)CC1	100
CS(=O)(=O)N[C@H]1CCN(c2ncccn2)[C@H]1CO[C@H]1CC[C@@H](c2ccccc2)CC1	97.1
